- testSystem: Aurora A kinase (Homo sapiens, UniProt O14965)
- Construct: purchased Upstate
- Sequence (O14965 whole entry): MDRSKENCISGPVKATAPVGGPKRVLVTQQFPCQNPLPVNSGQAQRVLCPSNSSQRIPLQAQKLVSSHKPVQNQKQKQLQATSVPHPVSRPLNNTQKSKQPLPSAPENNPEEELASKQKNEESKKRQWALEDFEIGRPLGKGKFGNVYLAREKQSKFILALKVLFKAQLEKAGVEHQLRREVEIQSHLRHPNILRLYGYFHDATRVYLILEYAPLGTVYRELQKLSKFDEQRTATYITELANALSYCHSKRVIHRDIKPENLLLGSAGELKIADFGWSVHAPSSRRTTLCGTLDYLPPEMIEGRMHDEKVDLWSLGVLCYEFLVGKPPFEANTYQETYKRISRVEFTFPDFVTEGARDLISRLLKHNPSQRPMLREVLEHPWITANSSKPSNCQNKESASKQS
- assayProtocol: Aurora A kinase assay ([γ-33P]ATP, CHOCKtide substrate)
- Format: biochemical
- conditions: 1.0 μM test compound
Label Condition met when inhibition at 1 µM is at or above 50%; otherwise label Condition not met.

CCOC(=O)CCc1c(/C=C2\C(=O)Nc3ccc(NS(=O)(=O)c4cc(Cl)cc(Cl)c4)cc32)[nH]c2c1C(=O)CCC2 [DCB-70193] ... Condition met
CCOC(=O)CCc1c(/C=C2\C(=O)Nc3ccc(-c4cc5ccccc5s4)cc32)[nH]c2c1C(=O)CCC2 [DCB-70069] ... Condition not met
CCOC(=O)CCc1c(/C=C2\C(=O)Nc3cc(Br)ccc32)[nH]c2c1C(=O)CCC2 [DCB-70130] ... Condition not met
NS(=O)(=O)c1ccc2c(c1)/C(=C/c1[nH]c3c(c1CCC(=O)O)C(=O)CCC3)C(=O)N2 [DCB-70095] ... Condition met
CCS(=O)(=O)Nc1ccc2c(c1)/C(=C/c1[nH]c3c(c1CCC(=O)O)C(=O)CCC3)C(=O)N2 [DCB-70119] ... Condition met

Record O=C(O)CCc1c(/C=C2\C(=O)Nc3ccc(Br)cc32)[nH]c2c1C(=O)CCC2 [DCB-70057] ; criterion: inhibition at 1 µM no lower than 50%. Met?
Condition met

Please check the record CNC(=O)CCc1c(/C=C2\C(=O)Nc3ccc(S(=O)(=O)Cc4c(Cl)cccc4Cl)cc32)[nH]c2c1C(=O)CCC2 [DCB-70157] and state if its inhibition at 1 µM is at or above 50%.
Condition not met

For this compound, is measured inhibition at 1 µM 50% or higher? O=C(O)CCc1c(/C=C2\C(=O)Nc3ccc(NC(=O)c4ccccc4)cc32)[nH]c2c1C(=O)CCC2 [DCB-70097]
Condition met

Textbook exercise: given the entry CCOC(=O)CCc1c(/C=C2\C(=O)Nc3ccc(NCc4ccc(F)cc4)cc32)[nH]c2c1C(=O)CCC2 [DCB-70176] , state whether its inhibition at 1 µM is greater than or equal to 50%.
Condition met

In plain terms: is recorded inhibition at 1 µM at least 50% for CCN(CC)CCCc1c(/C=C2\C(=O)Nc3ccc(S(=O)(=O)Cc4c(Cl)cccc4Cl)cc32)[nH]c2c1C(=O)CCC2 [DCB-70222] ?
Condition met

inhibition at 1 µM >= 50% for CCOC(=O)CCc1c(/C=C2\C(=O)Nc3ccc(S(=O)(=O)N4CCc5ccccc54)cc32)[nH]c2c1C(=O)CC(C)(C)C2 [DCB-70160] ?
Condition not met

====

Provide the reported inhibition at 0.5 µM of each item.
- testSystem: PDGFR-β kinase (Homo sapiens, UniProt P09619)
- Construct: recombinant N-terminal 6×His-tagged PDGFR-β kinase domain construct expressed by baculovirus; 6xHis (N); made in house
- Sequence (P09619 600-962 limits assumed): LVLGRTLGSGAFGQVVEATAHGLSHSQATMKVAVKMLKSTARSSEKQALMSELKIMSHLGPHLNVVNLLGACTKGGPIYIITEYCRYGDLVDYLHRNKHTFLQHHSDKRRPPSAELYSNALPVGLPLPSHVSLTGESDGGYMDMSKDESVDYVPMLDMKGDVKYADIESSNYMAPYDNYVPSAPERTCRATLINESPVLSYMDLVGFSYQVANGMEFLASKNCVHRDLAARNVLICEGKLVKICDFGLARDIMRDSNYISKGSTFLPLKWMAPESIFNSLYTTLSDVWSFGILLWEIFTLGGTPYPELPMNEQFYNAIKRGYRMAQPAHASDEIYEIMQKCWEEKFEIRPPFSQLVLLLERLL
- assayProtocol: PDGFR-β kinase assay (33P incorporation into Poly(Glu-Tyr))
- Type: biochemical
- conditions: 500 nM test compound
Numbers only, in %.

Solved entries:
O=C(O)CCc1c(/C=C2\C(=O)Nc3ccc(S(=O)(=O)Cc4ccc(F)cc4)cc32)[nH]c2c1C(=O)CCC2 ... 34.5
O=C(O)CCc1c(/C=C2\C(=O)Nc3cc(-c4cc(F)cc(F)c4)ccc32)[nH]c2c1C(=O)CCC2 ... 70.5
O=C(O)CCc1c(/C=C2\C(=O)Nc3ccc(NS(=O)(=O)c4ccccc4)cc32)[nH]c2c1C(=O)CCC2 ... 51
C=CS(=O)(=O)c1ccc2c(c1)/C(=C/c1[nH]c3c(c1CCC(=O)O)C(=O)CCC3)C(=O)N2 ... 22
CCOC(=O)CCc1c(/C=C2\C(=O)Nc3ccc(NCc4ccccc4)cc32)[nH]c2c1C(=O)CCC2 ... 40.8

Give measured inhibition at 0.5 µM for every item shown.
1. O=C(O)CCc1c(/C=C2\C(=O)Nc3cc(F)ccc32)[nH]c2c1C(=O)CCC2
2. O=C(O)CCc1c(/C=C2\C(=O)Nc3ccc(NC(=O)c4ccccc4)cc32)[nH]c2c1C(=O)CCC2

67.2
21.5

====

- testSystem: VEGFR2 kinase (Homo sapiens)
- Construct: recombinant N-terminal 6×His-tagged VEGFR2 kinase domain construct expressed by baculovirus; 6xHis (N); made in house
- Sequence (P35968 834-1162 limits assumed): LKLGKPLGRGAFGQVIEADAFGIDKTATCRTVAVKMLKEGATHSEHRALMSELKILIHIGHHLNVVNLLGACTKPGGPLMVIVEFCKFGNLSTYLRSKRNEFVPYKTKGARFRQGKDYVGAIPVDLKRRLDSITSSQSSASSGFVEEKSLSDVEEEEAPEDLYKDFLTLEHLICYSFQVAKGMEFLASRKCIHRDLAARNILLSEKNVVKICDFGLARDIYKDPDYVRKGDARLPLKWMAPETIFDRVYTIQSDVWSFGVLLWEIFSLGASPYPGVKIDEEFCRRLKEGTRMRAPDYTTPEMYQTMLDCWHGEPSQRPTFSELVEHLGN
- assayProtocol: VEGFR2 kinase assay (33P incorporation into Poly(Glu-Tyr))
- Format: biochemical
- conditions: 500 nM test compound; read-out: Inhibition at 500 nM (%) VEGFr-2
Consider the following compounds; for each one, report its inhibition at 0.5 µM.
One number for each entry, in %.

Some entries whose results are on file:
COc1ccc(NC(=O)Nc2ccc3c(c2)/C(=C/c2[nH]c4c(c2CCC(=O)O)C(=O)CCC4)C(=O)N3)cc1 ... 79.8
O=C(O)CCc1c(/C=C2\C(=O)Nc3ccc(NCc4ccccc4)cc32)[nH]c2c1C(=O)CCC2 ... 15.8
CCS(=O)(=O)c1ccc2c(c1)/C(=C/c1[nH]c3c(c1CCC(=O)O)C(=O)CCC3)C(=O)N2 ... 47.9
CCOC(=O)CCc1c(/C=C2\C(=O)Nc3ccc(NC(=O)Nc4cccc5ccccc45)cc32)[nH]c2c1C(=O)CCC2 ... 88
CCOC(=O)CCc1c(/C=C2\C(=O)Nc3ccc(NC(=O)Nc4ccc(F)cc4)cc32)[nH]c2c1C(=O)CCC2 ... 31.7
O=C(O)CCc1c(/C=C2\C(=O)Nc3ccc(S(=O)(=O)Nc4ccc(F)c(Cl)c4)cc32)[nH]c2c1C(=O)CCCC2 ... 57.5

GET /values?readout=inhibition at 0.5 µM&system=VEGFR2 kinase (Homo sapiens)&item= CCOC(=O)CCc1c(/C=C2\C(=O)Nc3ccc(NC(=O)Nc4ccc(OC)cc4)cc32)[nH]c2c1C(=O)CCC2
30.2

====

Record form. Attribute: inhibition at 1 µM. Fill in for each entry.
- testSystem: Aurora B kinase (Homo sapiens, UniProt Q96GD4)
- Construct: purchased Cell signaling
- Sequence (Q96GD4 whole entry): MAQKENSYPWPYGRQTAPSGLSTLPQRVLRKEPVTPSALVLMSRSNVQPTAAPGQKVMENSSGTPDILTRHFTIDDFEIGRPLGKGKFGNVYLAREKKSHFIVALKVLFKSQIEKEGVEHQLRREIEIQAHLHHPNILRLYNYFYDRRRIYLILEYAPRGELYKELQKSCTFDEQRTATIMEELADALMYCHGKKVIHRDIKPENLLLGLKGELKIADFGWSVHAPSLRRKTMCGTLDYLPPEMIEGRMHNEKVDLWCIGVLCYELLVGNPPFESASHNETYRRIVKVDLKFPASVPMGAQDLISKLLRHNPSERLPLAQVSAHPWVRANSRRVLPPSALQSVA
- assayProtocol: Aurora B kinase assay ([γ-33P]ATP, CHOCKtide substrate)
- Type: biochemical
- conditions: 1.0 μM test compound
Include the unit right after the number.

CC(=O)c1c(C)[nH]c(/C=C2\C(=O)Nc3ccc(NS(=O)(=O)c4ccccc4)cc32)c1CCC(=O)O ... 57.3%

Dear colleague, could you send me inhibition at 1 µM for each of the items below? Thanks.
1. CCOC(=O)CCc1c(/C=C2\C(=O)Nc3cc(-c4ccc5c(c4)OCO5)ccc32)[nH]c2c1C(=O)CCC2
2. CCOC(=O)CCc1c(/C=C2\C(=O)Nc3cc(-c4ccc(F)cc4)ccc32)[nH]c2c1C(=O)CCC2
3. CCOC(=O)CCc1c(/C=C2\C(=O)Nc3ccc(NS(=O)(=O)c4ccccc4)cc32)[nH]c2c1C(=O)CCCC2
4. CCOC(=O)CCc1c(/C=C2\C(=O)Nc3cc(-c4cc5ccccc5s4)ccc32)[nH]c2c1C(=O)CCC2
5. Nc1ccccc1NC(=O)CCc1c(/C=C2\C(=O)Nc3ccc(NS(=O)(=O)c4ccccc4)cc32)[nH]c2c1C(=O)CCC2
6. CCOC(=O)CCc1c(/C=C2\C(=O)Nc3ccc(NC(=O)Nc4ccc(F)cc4F)cc32)[nH]c2c1C(=O)CCC2
7. O=C(O)CCc1c(/C=C2\C(=O)Nc3ccc(NC(=O)c4ccc(F)cc4)cc32)[nH]c2c1C(=O)CCC2

13.5%
19.5%
75.1%
16%
47.4%
13.9%
7.4%

====

- testSystem: Aurora B kinase (Homo sapiens, UniProt Q96GD4)
- Construct: purchased Cell signaling
- assayProtocol: Aurora B kinase assay ([γ-33P]ATP, CHOCKtide substrate)
- Format: biochemical
- conditions: 1.0 μM test compound
Kindly supply the reported inhibition at 1 µM values for the records listed here.
One number for each entry, in %.

COc1cc(-c2ccc3c(c2)NC(=O)/C3=C\c2[nH]c3c(c2CCC(=O)O)C(=O)CCC3)ccc1O [DCB-70082] ... 47.1
O=C(O)CCc1c(C=C2C(=S)Nc3cc(Br)ccc32)[nH]c2c1C(=O)CCC2 [DCB-70086] ... 17.8
CC1(C)CC(=O)c2c([nH]c(/C=C3\C(=O)Nc4ccc(NS(=O)(=O)c5ccccc5)cc43)c2CCC(=O)O)C1 [DCB-70169] ... 31
CCOC(=O)CCc1c(/C=C2\C(=O)Nc3ccc(-c4ccc(OC)c(OC)c4)cc32)[nH]c2c1C(=O)CCC2 [DCB-70067] ... -1.3
O=C(O)CCc1c(/C=C2\C(=O)Nc3ccc(S(=O)(=O)N4CCCCC4)cc32)[nH]c2c1C(=O)CCC2 [DCB-70114] ... 60.7

// for each molecule in input: emit inhibition at 1 µM
1. CNS(=O)(=O)c1ccc2c(c1)/C(=C/c1[nH]c3c(c1CCC(=O)N1CCN(C)CC1)C(=O)CCC3)C(=O)N2 [DCB-70117]
2. CC1(C)CC(=O)c2c([nH]c(/C=C3\C(=O)Nc4ccc(S(=O)(=O)Cc5c(Cl)cccc5Cl)cc43)c2CCC(=O)O)C1 [DCB-70159]
3. CCOC(=O)CCc1c(/C=C2\C(=O)Nc3ccc(OC)cc32)[nH]c2c1C(=O)CCC2 [DCB-70166]
4. CCOC(=O)CCc1c(/C=C2\C(=O)Nc3ccc(-c4ccc(F)cc4)cc32)[nH]c2c1C(=O)CCC2 [DCB-70108]
5. CCOC(=O)CCc1c(/C=C2\C(=O)Nc3ccc(NCc4ccc(OC)cc4)cc32)[nH]c2c1C(=O)CCC2 [DCB-70175]
6. CCOC(=O)CCc1c(/C=C2\C(=O)Nc3ccc(/N=C/c4ccncc4)cc32)[nH]c2c1C(=O)CCC2 [DCB-70177]

[5.3, -5.5, 13, 6.8, 8.4, 22.5]
